# test-target: human Cav2.1/β4/α2δ1 (Homo sapiens, UniProt O00555)
quantity-measured: IC50

Bench note, human Cav2.1/β4/α2δ1 (Homo sapiens, UniProt O00555): entry O=c1[nH]c2ccccc2n1C1CCN(CCCC(c2ccc(F)cc2)c2ccc(F)cc2)CC1 [Pimozide, pimozide] , its IC50 = > 30 µM
